- TARGET_UNDER_TEST: GST-tagged full-length FAK enzyme (PTK2) (Homo sapiens, UniProt Q05397)
- Construct: GST-tagged full-length FAK enzyme (PTK2, Invitrogen PV4085); GST; purchased Invitrogen PV4085
- Sequence (Q05397 whole entry): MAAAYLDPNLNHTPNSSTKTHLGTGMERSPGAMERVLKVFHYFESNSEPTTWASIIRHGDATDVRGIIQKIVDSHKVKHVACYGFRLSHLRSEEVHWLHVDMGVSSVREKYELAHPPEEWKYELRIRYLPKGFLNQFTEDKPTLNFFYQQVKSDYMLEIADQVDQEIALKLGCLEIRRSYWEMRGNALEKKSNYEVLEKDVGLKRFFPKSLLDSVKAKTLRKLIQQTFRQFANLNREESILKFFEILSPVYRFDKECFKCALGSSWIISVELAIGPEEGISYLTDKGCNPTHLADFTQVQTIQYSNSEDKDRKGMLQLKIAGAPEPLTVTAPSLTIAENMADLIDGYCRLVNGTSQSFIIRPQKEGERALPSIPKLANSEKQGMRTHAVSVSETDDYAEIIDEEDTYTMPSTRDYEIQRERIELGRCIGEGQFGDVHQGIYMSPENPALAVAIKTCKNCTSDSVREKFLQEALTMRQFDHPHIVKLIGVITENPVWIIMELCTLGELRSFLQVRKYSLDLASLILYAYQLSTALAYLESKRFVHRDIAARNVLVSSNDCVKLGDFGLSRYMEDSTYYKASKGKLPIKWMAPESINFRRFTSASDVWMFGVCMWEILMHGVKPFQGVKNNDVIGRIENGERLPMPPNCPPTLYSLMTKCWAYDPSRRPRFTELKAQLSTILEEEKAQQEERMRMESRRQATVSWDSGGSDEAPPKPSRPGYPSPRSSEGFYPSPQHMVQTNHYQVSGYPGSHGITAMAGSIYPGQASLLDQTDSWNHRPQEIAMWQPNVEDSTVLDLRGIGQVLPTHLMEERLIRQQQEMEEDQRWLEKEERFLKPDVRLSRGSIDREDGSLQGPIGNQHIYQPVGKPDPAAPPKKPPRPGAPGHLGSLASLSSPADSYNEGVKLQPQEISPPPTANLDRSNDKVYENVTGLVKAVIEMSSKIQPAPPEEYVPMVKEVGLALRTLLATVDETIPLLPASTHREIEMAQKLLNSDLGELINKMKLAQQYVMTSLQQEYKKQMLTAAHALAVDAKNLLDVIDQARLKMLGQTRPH
- PROCEDURE_SUMMARY: Biochemical Omnia Assay (FAK)
pIC50: −log10 of the molar value.
MEASURE_NAME: pIC50

Enquiry: Tell us which pIC50 value is on record for CCOP1(=O)Cc2cc(OC)c(cc2Cl)Nc2ncc(C(F)(F)F)c(n2)Nc2ccc(nc2C(=O)NC)-c2cnn(c2)CC2(COC2)CO1 (single isomer, unassigned) [Example 57A]
Return: > 6.40

Enquiry: Provide pIC50 value for the following molecule: CCOP1(=O)Cc2ccc(c(OC)c2)Nc2ncc(C(F)(F)F)c(n2)Nc2ccc(c(Cl)c2C(=O)NC)-c2cnn(c2)CCCO1 (racemic) [Example 28]
Return: > 6.40

Enquiry: State its pIC50: CCOP1(=O)Cc2ccc(c(OC)c2)Nc2ncc(C(F)(F)F)c(n2)Nc2ccc(nc2C(=O)NOC)-c2cnn(c2)CCCO1 (racemic) [Example 46]
Return: > 6.40

---

- TARGET_UNDER_TEST: GST-tagged full-length FAK enzyme (PTK2) (Homo sapiens, UniProt Q05397)
- Construct: GST-tagged full-length FAK enzyme (PTK2, Invitrogen PV4085); GST; purchased Invitrogen PV4085
- PROCEDURE_SUMMARY: Biochemical Omnia Assay (FAK)
- TEST_CONTEXT: mean IC50; [ATP] = 50uM; read-out: FAK Activity Biochemical OMNIA; [ATP] = 50uM
pIC50: −log10 of the molar value.
Please go through the items and note down their pIC50.

Enquiry: Given the molecule CNC(=O)c1nc2ccc1Nc1nc(ncc1C(F)(F)F)Nc1ccc(cc1OC)CP(=O)(C(C)C)OCCCn1cc-2cn1 (single isomer, unassigned) [Example 68B] , write its reported pIC50.
Return: > 6.40

Enquiry: Supply pIC50 value. Item: CCOP1(=O)Cc2ccc(c(OC)c2)Nc2ncc(C(F)(F)F)c(n2)Nc2ccc(nc2C(=O)NC)-c2cn(nc2C)CCCO1 (single isomer, unassigned) [Example 34A]
Return: > 6.40

Enquiry: In one line, give reported pIC50 of the entry CCOP1(=O)Cc2ccc(c(Cl)c2)Nc2ncc(C(F)(F)F)c(n2)Nc2ccc(nc2C(=O)NC)-c2cnn(c2)CCCO1 (racemic) [Example 24] .
Return: > 6.40

Enquiry: Answer with the recorded pIC50 of CCOP1(=O)Cc2ccc(c(OC)c2)Nc2ncc(C(F)(F)F)c(n2)Nc2ccc(nc2C(=O)NC)-c2cn(nc2Cl)CCCO1 (single isomer, unassigned) [Example 49A] only.
Return: > 6.40

Enquiry: Note down pIC50 recorded for CCOP1(=O)Cc2ccc(c(OC)c2)Nc2ncc(C(F)(F)F)c(n2)Nc2ccc(nc2C(=O)NC)-c2cnn(c2C)CCCO1 (racemic) [Example 35]
Return: > 6.40

Enquiry: Indicate its recorded pIC50; the molecule in question is CCOP1(=O)Cc2ccc(c(F)c2)Nc2ncc(C(F)(F)F)c(n2)Nc2ccc(nc2C(=O)NC)-c2cnn(c2)CCCCO1 (racemic)
Return: > 6.40

Enquiry: Provide one value: measured pIC50 of CNC(=O)c1nc2ccc1Nc1nc(ncc1C(F)(F)F)Nc1ccc(cc1OC)CP(C)(=O)OCCCn1cc-2cn1 (single isomer, unassigned) [Example 61B]
Return: > 6.40

Enquiry: Look up pIC50 of CCP1(=O)Cc2ccc(c(OC)c2)Nc2ncc(C(F)(F)F)c(n2)Nc2ccc(nc2C(=O)NC)-c2cnn(c2)CCCO1 (racemic) [Example 67] and report it.
Return: > 6.40

Enquiry: In one line, give reported pIC50 of the entry CCOP1(=O)Cc2ccc(c(OC)c2)Nc2ncc(C(F)(F)F)c(n2)Nc2ccc(cc2C(=O)NC)-c2cnn(c2)CCCCO1 (racemic) .
Return: > 6.40

Enquiry: Query pIC50 for CCOP1(=O)Cc2ccc(c(Br)c2)Nc2ncc(C(F)(F)F)c(n2)Nc2ccc(nc2C(=O)NC)-c2cnn(c2)CCCO1 (racemic)
Return: > 6.40

Enquiry: Tell me its pIC50 given CNC(=O)c1nc2ccc1Nc1nc(ncc1C(F)(F)F)Nc1ccc(cc1OC)CP(=O)(C(C)C)OCCCn1cc-2cn1 (single isomer, unassigned) [Example 68A] as the entry.
Return: > 6.40

Enquiry: Quote pIC50 reported for CCOP1(=O)Cc2ccc(c(OC)c2)Nc2ncc(C(F)(F)F)c(n2)Nc2ccc(nc2C(=O)NC)-c2cn(nc2Cl)CCCO1 (racemic) [Example 49] please.
Return: > 6.40

Enquiry: Answer with the recorded pIC50 of CNC(=O)c1nc2ccc1Nc1nc(ncc1C(F)(F)F)Nc1ccc(cc1OC)CP(C)(=O)OCCCn1cc-2cn1 (single isomer, unassigned) [Example 61A] only.
Return: > 6.40

Enquiry: For the molecule CNC(=O)c1nc2ccc1Nc1nc(ncc1C(F)(F)F)Nc1ccc(cc1OC)CP(=O)(C(C)C)OCCCn1cc-2cn1 (racemic) [Example 68] , report pIC50.
Return: > 6.40

Enquiry: Identify measured pIC50 corresponding to CCCP1(=O)Cc2ccc(c(OC)c2)Nc2ncc(C(F)(F)F)c(n2)Nc2ccc(nc2C(=O)NC)-c2cnn(c2)CCCO1 (racemic) [Example 37]
Return: > 6.40

Enquiry: Entry CCOP1(=O)Cc2ccc(c(OC)c2)Nc2ncc(C(F)(F)F)c(n2)Nc2ccc(nc2C(=O)NC)-c2cn(nn2)CCCO1 (single isomer, unassigned) [Example 64A] needs its pIC50 filled in; supply it.
Return: > 6.40

Enquiry: Report measured pIC50; entry is CNC(=O)c1nc2ccc1Nc1nc(ncc1C(F)(F)F)Nc1ccc(cc1OC)CP(=O)(O)OCCCn1cc-2cn1
Return: > 6.40

Enquiry: Answer with the recorded pIC50 of CCP1(=O)Cc2ccc(c(OC)c2)Nc2ncc(C(F)(F)F)c(n2)Nc2ccc(nc2C(=O)NC)-c2cnn(c2)CCCO1 (single isomer, unassigned) [Example 67A] only.
Return: > 6.40

Enquiry: Respond only with pIC50 recorded for CCOP1(=O)Cc2ccc(c(OC)c2)Nc2ncc(C(F)(F)F)c(n2)Nc2ccc(nc2C(=O)NC)-c2cnn(c2C#N)CCCO1 (racemic)
Return: 5.40 to 6.40

Enquiry: Specify pIC50 for CCOP1(=O)Cc2ccc(c(OC)c2)Nc2ncc(C(F)(F)F)c(n2)Nc2ccc(c3c2C(=O)N(C)C3)-c2cnn(c2)CCCCO1 (racemic) and stop.
Return: > 6.40

Enquiry: For the molecule CCCP1(=O)Cc2ccc(c(OC)c2)Nc2ncc(C(F)(F)F)c(n2)Nc2ccc(cc2C(=O)NC)-c2cnn(c2)CCCO1 (racemic) , give its reported pIC50.
Return: > 6.40

Enquiry: // fetch pIC50 given entry CCOP1(=O)Cc2ccc(c(OC)c2)Nc2ncc(C(F)(F)F)c(n2)Nc2ccc(cc2C(=O)N(C)C)-c2cnn(c2)CCCO1 (racemic)
Return: > 6.40

Enquiry: # return recorded pIC50 for entry CCOP1(=O)Cc2ccc(c(OC)c2)Nc2ncc(C(F)(F)F)c(n2)Nc2ccc(nc2C(=O)NC)-c2cnn(c2)CC(C)CO1 (mixture of isomers) [Example 19]
Return: > 6.40

The reported numbers originate from patent US9133224B2.
